Recorded pKi values for a group of compounds are listed next.
- test-target: UniProtKB P00735
- experimental-protocol: Inhibition of bovine thrombin using D-Phe-Pip-Arg-p-NA as substrate by chromogenic assay
- experimental-context: read-out: Ki
pKi: −log10 of the molar value.
endpoint-label: pKi

1. CS(=O)(=O)c1cccc(COc2cccc(NC(=O)C3CCN(c4ccncc4)CC3)c2)c1 = 4.80
2. O=C(Nc1cccc(OCc2ccc(Cl)cc2)c1)C1CCN(c2ccncc2)CC1 = 6.59
3. O=C(Nc1cccc(OCc2cccc(Cl)c2)c1)C1CCN(c2ccncc2)CC1 = 6.81
4. O=C(Nc1cccc(CCc2cccc(F)c2)c1)C1CCN(c2ccncc2)CC1 = 4.91
5. O=C(Nc1cccc(OCCc2cccc(F)c2)c1)C1CCN(c2ccncc2)CC1 = 6.31
6. O=C(Nc1cccc(OCc2ccc(C(F)(F)F)cc2)c1)C1CCN(c2ccncc2)CC1 = 5.47

###

- test-target: Neutrophil elastase (Homo sapiens)
- Sequence (P08246 whole entry): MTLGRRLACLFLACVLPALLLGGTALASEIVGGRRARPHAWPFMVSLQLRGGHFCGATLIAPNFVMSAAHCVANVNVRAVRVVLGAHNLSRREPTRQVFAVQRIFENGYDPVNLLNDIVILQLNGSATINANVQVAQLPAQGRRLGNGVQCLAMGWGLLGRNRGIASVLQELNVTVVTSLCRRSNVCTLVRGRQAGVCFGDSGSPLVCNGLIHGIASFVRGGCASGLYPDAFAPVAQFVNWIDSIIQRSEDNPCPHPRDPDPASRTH
- experimental-protocol: Inhibition of human neutrophil leukocyte elastase using N-(methoxysuccinyl)-Ala-Ala-Pro-Val-p-NA as substrate by chromogenic assay
pKi: −log10 of the molar value.
Recorded pKi values for a group of compounds are listed next.
endpoint-label: pKi

1. COc1ccc(COc2cccc(NC(=O)C3CCN(c4ccncc4)CC3)c2)cc1OC = < 3.60
2. O=C(Nc1cccc(OCc2ccccc2F)c1)C1CCN(c2ccncc2)CC1 = < 3.60
3. O=C(Nc1cccc(OCc2cc(F)cc(F)c2)c1)C1CCN(c2ccncc2)CC1 = < 3.60

###

- test-target: Prothrombin (Bos taurus)
- experimental-protocol: Inhibition of bovine thrombin using D-Phe-Pip-Arg-p-NA as substrate by chromogenic assay
- experimental-context: read-out: Ki
pKi: −log10 of the molar value.
Recorded pKi values for a group of compounds are listed next.
endpoint-label: pKi

1. O=C(Nc1cccc(OCc2cccc(F)c2)c1)C1CCN(c2ccncc2)CC1 = 8.22
2. O=C(Nc1cccc(OCc2ccc(F)cc2)c1)C1CCN(c2ncccn2)CC1 = 4.57
3. Nc1cccc(COc2cccc(NC(=O)C3CCN(c4ccncc4)CC3)c2)c1 = 4.88

###

Recorded Ki values for a group of compounds are listed next.
- test-target: UniProtKB P00735
- experimental-protocol: Inhibition of bovine thrombin using D-Phe-Pip-Arg-p-NA as substrate by chromogenic assay
- experimental-context: read-out: Ki
endpoint-label: Ki

1) O=C(Nc1cccc(OCc2ccc(F)cc2)c1)C1CCN(c2ccccn2)CC1 = > 250 µM
2) CC(=N)N1CCC(C(=O)Nc2cccc(OCc3ccc(F)cc3)c2)CC1 = > 250 µM
3) CC(C)N1CCC(C(=O)Nc2cccc(OCc3ccc(F)cc3)c2)CC1 = > 250 µM

###

- test-target: Coagulation factor X (Homo sapiens)
- Sequence (P00742 41-179 limits assumed): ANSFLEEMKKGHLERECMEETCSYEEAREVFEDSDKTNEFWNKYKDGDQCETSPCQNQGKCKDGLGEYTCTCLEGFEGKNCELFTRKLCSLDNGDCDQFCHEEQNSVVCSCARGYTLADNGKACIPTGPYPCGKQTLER
- Sequence (P00742 235-488 limits assumed): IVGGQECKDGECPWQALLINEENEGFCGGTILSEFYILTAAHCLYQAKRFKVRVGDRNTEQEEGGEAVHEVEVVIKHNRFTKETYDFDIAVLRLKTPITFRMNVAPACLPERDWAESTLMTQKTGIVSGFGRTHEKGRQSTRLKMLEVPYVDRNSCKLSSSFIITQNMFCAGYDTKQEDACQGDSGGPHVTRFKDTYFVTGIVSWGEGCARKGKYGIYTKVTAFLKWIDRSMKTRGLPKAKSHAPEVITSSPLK
pKi: −log10 of the molar value.
Recorded pKi values for a group of molecules are listed next.
endpoint-label: pKi

1) Nc1cccc(COc2cccc(NC(=O)C3CCN(c4ccncc4)CC3)c2)c1 = 4.44
2) Nc1ccc(COc2cccc(NC(=O)C3CCN(c4ccncc4)CC3)c2)cc1 = 4.60
3) O=C(Nc1cccc(OCc2ccc(Cl)cc2)c1)C1CCN(c2ccncc2)CC1 = 4.53
4) O=C(Nc1cccc(OCc2cc(F)cc(F)c2)c1)C1CCN(c2ccncc2)CC1 = 4.57
5) O=C(Nc1cccc(OCc2cccc([N+](=O)[O-])c2)c1)C1CCN(c2ccncc2)CC1 = 5.17
6) O=C(Nc1cccc(OCc2ccc(F)cc2)c1)C1CCN(c2ccccn2)CC1 = 4.11
7) O=C(Nc1cccc(OCCc2cccc(F)c2)c1)C1CCN(c2ccncc2)CC1 = 5.67
8) COc1cc(COc2cccc(NC(=O)C3CCN(c4ccncc4)CC3)c2)cc(OC)c1 = 3.90

###

- experimental-protocol: Inhibition of bovine pancreatic trypsin using D-Phe-Pip-Arg-p-NA as substrate by chromogenic assay
- Design: species or system Bos taurus
endpoint-label: Ki

1) O=C(Nc1cccc(OCc2cccc(F)c2)c1)C1CCN(c2ccncc2)CC1 = > 250 µM
2) O=C(Nc1cccc(OCc2ccc(F)cc2)c1)C1CCN(c2ccncc2)CC1 = > 250 µM
3) O=C(Nc1cccc(OCc2cc(F)cc(F)c2)c1)C1CCN(c2ccncc2)CC1 = > 250 µM

###

- test-target: UniProt P00735
- experimental-protocol: Inhibition of bovine thrombin using D-Phe-Pip-Arg-p-NA as substrate by chromogenic assay
- experimental-context: read-out: Ki
endpoint-label: Ki

1) Nc1ccc(N2CCC(C(=O)Nc3cccc(OCc4ccc(F)cc4)c3)CC2)cc1 = > 250 µM
2) O=C(Nc1ccccc1OCc1cccc(F)c1)C1CCN(c2ccncc2)CC1 = > 250 µM
3) CN(C(=O)C1CCN(c2ccncc2)CC1)c1cccc(OCc2cccc(F)c2)c1 = > 250 µM
